- TESTED_TARGET: Torsin-1A (Homo sapiens) (UniProt O14656)
- Sequence (O14656 whole entry, looked up): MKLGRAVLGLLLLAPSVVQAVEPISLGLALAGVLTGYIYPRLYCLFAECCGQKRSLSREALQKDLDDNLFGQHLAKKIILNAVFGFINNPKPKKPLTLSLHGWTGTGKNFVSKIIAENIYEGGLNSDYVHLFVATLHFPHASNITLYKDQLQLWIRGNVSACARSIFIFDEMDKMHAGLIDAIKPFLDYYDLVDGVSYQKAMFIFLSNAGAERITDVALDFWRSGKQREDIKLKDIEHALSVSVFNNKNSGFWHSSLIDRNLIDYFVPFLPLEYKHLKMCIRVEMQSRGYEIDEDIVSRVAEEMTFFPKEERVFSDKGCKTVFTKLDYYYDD
- MEASUREMENT_NOTES: torsin A binders from cell lysate, primary screen, small-molecule microarray, wild-type, 635/667 nm (AID 1149)
- CONDITION_SUMMARY: COS7 hTOR1A-WT lysate, 635 nm fluorescence, higher = more signal
The entries below come with measured composite z-score values attached.
// keep it numeric: no unit symbol after the value

Use these answered entries as a reference point.
{"COMPOUND": "COCCCNC(=O)[C@]1(Cc2ccccc2N=[N+]=[N-])N=C(c2ccc(OCCCO)cc2)O[C@@H]1c1ccccc1N=[N+]=[N-]", "composite z-score": 0.238}
{"COMPOUND": "COC(=O)[C@@]1(Cc2ccccc2)[C@H]2c3cc(C(=O)N4CCCC4)n(C[C@H](O)CO)c3C[C@H]2CN1C(=O)c1ccccc1", "composite z-score": 0.677}
{"COMPOUND": "COc1c(C)cc(-c2cc3c(c(-c4ccccc4)n2)[Si](C(C)C)(C(C)C)OC3)cc1C", "composite z-score": 0.124}

INPUT: Need composite z-score, item COC(=O)C(CC#Cc1ccc2c(c1)[C@]1(C(=O)N2)[C@H](C(=O)O)[C@H]2C(=O)O[C@H](c3ccccc3)[C@H](c3ccccc3)N2[C@@H]1c1ccccc1OCCO)C(=O)OC
OUTPUT: 1.04

INPUT: Need composite z-score, item CCOC(=O)C[C@H]1[C@H](OC(=O)Cc2ccc3c(c2)OCO3)[C@@H](NC(=O)Cc2ccc(OC)cc2)c2cc(OCCCO)ccc2N1C(=O)c1ccccc1
OUTPUT: -0.334

INPUT: Need composite z-score, item CN(C)CCCCNC(=O)[C@H]1C[C@H]2C(=O)N[C@@H](CCCCN(C)C)C(=O)N2[C@H]1c1cccc(OCCO)c1
OUTPUT: 0.68

INPUT: Need composite z-score, item O=C(CS)NCCCCCCNC(=O)[C@H]1C[C@H]2C(=O)N[C@@H](Cc3ccccc3)C(=O)N2[C@H]1c1cccc(OCCO)c1
OUTPUT: 0.78

INPUT: Need composite z-score, item COC(=O)[C@@]1(Cc2ccc(OC)cc2)[C@H]2c3cc(C(=O)N(C)C)n(CCc4c[nH]c5ccc(O)cc45)c3C[C@H]2CN1C(=O)c1ccccc1
OUTPUT: 0.0612

INPUT: Need composite z-score, item COc1ccc(C(O)C2C=CC3C(=O)N(c4ccccc4)C(=O)C3N2Nc2ccccc2)cc1OCc1ccccc1 (centres undefined)
OUTPUT: 0.867

INPUT: Need composite z-score, item COCCOC(=O)N1C(=O)[C@@]2(c3cc(C#CC4(O)CCCCCC4)ccc31)[C@H](c1ccccc1OCCO)N1[C@H](c3ccccc3)[C@H](c3ccccc3)OC(=O)[C@H]1[C@@H]2C(N)=O
OUTPUT: 0.749
